target: C-C chemokine receptor type 2 (Homo sapiens)
Sequence (P41597 whole entry): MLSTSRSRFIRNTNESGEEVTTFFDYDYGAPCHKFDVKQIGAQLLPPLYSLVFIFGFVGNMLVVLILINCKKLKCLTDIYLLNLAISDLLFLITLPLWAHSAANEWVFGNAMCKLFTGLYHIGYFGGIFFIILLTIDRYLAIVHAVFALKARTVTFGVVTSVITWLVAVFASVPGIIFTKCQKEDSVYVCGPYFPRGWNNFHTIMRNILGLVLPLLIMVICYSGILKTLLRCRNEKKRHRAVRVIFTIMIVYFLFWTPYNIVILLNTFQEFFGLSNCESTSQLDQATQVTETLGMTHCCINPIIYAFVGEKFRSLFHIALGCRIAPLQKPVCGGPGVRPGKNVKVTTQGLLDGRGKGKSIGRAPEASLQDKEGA
method.description: Displacement of [125I]MCP-1 from human CCR2b expressed in CHO cells
Type: cell-based
pIC50: −log10 of the molar value.
Where pIC50 equals or exceeds 7, the correct label is satisfied; where it does not, the label is not satisfied.

>  <compound>
CS(=O)(=O)NC(CCN1CCC2(C=Cc3ccccc32)CC1)C(=O)NCc1cc(C(F)(F)F)cc(C(F)(F)F)c1 (stereo not drawn)

>  <label.value>
not satisfied

$$$$

Data request: Textbook exercise: given the entry C[C@H]1CN(CC[C@H](C(=O)NCc2cc(C(F)(F)F)cc(C(F)(F)F)c2)C2CC2)CC[C@@]12C=Cc1ccccc12 , state whether its pIC50 is greater than or equal to 7.
Data returned: satisfied

Data request: Textbook exercise: given the entry CC(=O)N1CCCC(C(CCN2CCC3(C=Cc4ccccc43)CC2)C(=O)NCc2cc(C(F)(F)F)cc(C(F)(F)F)c2)C1 (stereo not drawn) , state whether its pIC50 is greater than or equal to 7.
Data returned: not satisfied

Data request: Textbook exercise: given the entry C[C@H]1CN(CC[C@H](C(=O)NCc2cc(C(F)(F)F)cc(C(F)(F)F)c2)C2CCC2)CC[C@@]12C=Cc1ccccc12 , state whether its pIC50 is greater than or equal to 7.
Data returned: satisfied

Data request: Textbook exercise: given the entry C[C@H](CCN1CCC2(C=Cc3ccccc32)CC1)C(=O)NCc1cc(C(F)(F)F)cc(C(F)(F)F)c1 , state whether its pIC50 is greater than or equal to 7.
Data returned: not satisfied
